// provenance: paper PMC10254843

# System: DU-145 (prostate cancer cells)
# method_summary: MTT cell survival assay, DU-145 prostate cancer cells
# Format: cell-based
# particulars: Homo sapiens, MTT test, cells incubated at 37 °C for 48 h (Table 1 footnote), mean ± SEM, n = 3
IC50: recorded values
endpoint: IC50 (µM)

1) O=C(C1=C(Nc2ccccc2)C(=O)c2ccccc2C1=O)c1ccco1 [Compound 11] : 5.45
2) CCCCCC(=O)C1=C(Nc2ccccc2)C(=O)c2ccccc2C1=O [Compound 1] : 60.9
3) O=C(C1=C(Nc2ccccc2)C(=O)c2ccccc2C1=O)c1cccs1 [Compound 12] : 6.97
4) COc1cccc2c1C(=O)c1c(O)c3c(c(O)c1C2=O)C[C@@](O)(C(=O)CO)C[C@@H]3O[C@H]1C[C@H](N)[C@H](O)[C@H](C)O1 [DOX, Doxorubicin, reference compound] : 0.93
5) O=C(C1=C(Nc2ccccc2)C(=O)c2ccccc2C1=O)c1ccccc1 [Compound 4] : 0.82
